// provenance: ChEMBL document CHEMBL1909046

Target: C-X-C chemokine receptor type 2 (Homo sapiens, UniProt P25025); also: in other assays of this panel Not Active means under 50% inhibition at 10 µM
Sequence (P25025 whole entry): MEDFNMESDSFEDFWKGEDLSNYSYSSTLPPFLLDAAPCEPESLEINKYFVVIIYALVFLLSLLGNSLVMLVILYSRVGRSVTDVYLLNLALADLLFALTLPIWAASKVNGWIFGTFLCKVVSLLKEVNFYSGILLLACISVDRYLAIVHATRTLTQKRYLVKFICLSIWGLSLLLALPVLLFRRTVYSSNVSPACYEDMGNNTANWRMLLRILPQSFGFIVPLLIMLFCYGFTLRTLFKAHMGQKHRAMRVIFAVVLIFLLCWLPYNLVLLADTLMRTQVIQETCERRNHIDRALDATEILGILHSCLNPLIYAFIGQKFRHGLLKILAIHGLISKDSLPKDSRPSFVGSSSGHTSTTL
Assay type: cell membranes, Membrane
Conditions: cho-k1
measured.parameter: IC50

*Q* # IC50 lookup, item CCN(CC)CC(=O)Nc1c(C)cccc1C [LIDOCAINE]
*A* Not Active

*Q* # IC50 lookup, item CN(C)[C@@H]1C(O)=C(C(N)=O)C(=O)[C@@]2(O)C(O)=C3C(=O)c4c(O)ccc(Cl)c4[C@@](C)(O)[C@H]3C[C@@H]12 [CHLORTETRACYCLINE]
*A* Not Active

*Q* # IC50 lookup, item CN(C)CC[C@@H](c1ccc(Cl)cc1)c1ccccn1 [DEXCHLORPHENIRAMINE]
*A* Not Active

*Q* # IC50 lookup, item CNCCC(Oc1ccc(C(F)(F)F)cc1)c1ccccc1 (stereo not drawn) [FLUOXETINE]
*A* Not Active

*Q* # IC50 lookup, item CO[C@H]1/C=C/O[C@@]2(C)Oc3c(C)c(O)c4c(O)c(c(/C=N/N5CCN(C6CCCC6)CC5)c(O)c4c3C2=O)NC(=O)/C(C)=C\C=C\[C@H](C)[C@H](O)[C@@H](C)[C@@H](O)[C@@H](C)[C@H](OC(C)=O)[C@@H]1C [RIFAPENTINE]
*A* Not Active

*Q* # IC50 lookup, item CC(=O)[C@H]1[C@H](C#N)C[C@H]2[C@@H]3CC=C4C[C@@H](O)CC[C@]4(C)[C@H]3CC[C@@]21C [PREGNENOLONE CARBONITRILE]
*A* Not Active

*Q* # IC50 lookup, item COc1ccc(CCN(C)CCCC(C#N)(c2ccc(OC)c(OC)c2)C(C)C)cc1OC (stereo not drawn)
*A* Not Active

Others:
*Q* # IC50 lookup, item Cc1cc2c(OCC(CNC(C)(C)C)OC(=O)c3ccccc3)cccc2[nH]1 (stereo not drawn) [BOPINDOLOL]
*A* Not Active

* * *

biological target: Beta-1 adrenergic receptor (Homo sapiens, UniProt P08588); assay: DRUGMATRIX: Adrenergic beta1 radioligand binding (ligand: [125I] Cyanopindolol); type: cell membranes, CHO-K1, Membrane; details: cho-k1; Not Active = under 50% inhibition at 10 µM
Sequence (P08588 whole entry): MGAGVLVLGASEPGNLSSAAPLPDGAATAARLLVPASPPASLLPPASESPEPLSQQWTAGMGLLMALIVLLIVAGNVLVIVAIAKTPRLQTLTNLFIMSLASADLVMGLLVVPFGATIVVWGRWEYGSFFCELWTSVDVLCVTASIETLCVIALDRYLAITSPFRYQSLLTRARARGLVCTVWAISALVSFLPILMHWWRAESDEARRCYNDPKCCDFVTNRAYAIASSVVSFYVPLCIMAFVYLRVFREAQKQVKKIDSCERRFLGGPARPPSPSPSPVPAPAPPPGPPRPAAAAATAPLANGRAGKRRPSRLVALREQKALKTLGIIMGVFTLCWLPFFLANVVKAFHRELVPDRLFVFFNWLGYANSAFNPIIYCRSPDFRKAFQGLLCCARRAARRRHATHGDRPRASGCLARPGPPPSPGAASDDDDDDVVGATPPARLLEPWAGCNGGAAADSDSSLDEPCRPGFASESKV
measured.parameter: IC50

# count of solved cases: 6
*Q* # IC50 lookup, item CC(C)Oc1ccc2c(=O)c(-c3ccccc3)coc2c1
*A* Not Active

*Q* # IC50 lookup, item O=C1Nc2ccc(Cl)cc2C(c2ccccc2Cl)=NC1O (configuration not stated)
*A* Not Active

*Q* # IC50 lookup, item COc1ccc2[nH]cc(CCNC(C)=O)c2c1
*A* Not Active

*Q* # IC50 lookup, item CC[C@@H](C(=O)[C@@H](C)[C@@H](O)[C@H](C)[C@@H]1O[C@@H]([C@@H](CC)C(=O)O)CC[C@@H]1C)[C@H]1O[C@]2(C=C[C@@H](O)[C@]3(CC[C@@](C)([C@H]4CC[C@](O)(CC)[C@H](C)O4)O3)O2)[C@H](C)C[C@@H]1C
*A* Not Active

*Q* # IC50 lookup, item C[C@H]1C[C@@H]2[C@H]([C@@H](O)C[C@@]3(C)[C@H]2CC[C@]3(O)C(=O)CO)[C@@]2(C)C=CC(=O)C=C12
*A* Not Active

*Q* # IC50 lookup, item COc1ccc(C2C(=O)c3ccccc3C2=O)cc1
*A* Not Active

Now examine the next entry.
*Q* # IC50 lookup, item O=c1cc(N2CCOCC2)oc2c(-c3ccccc3)cccc12
*A* Not Active

* * *

Would you mind telling me the reported Ki of each entry?
experiment: DRUGMATRIX: Imidazoline I2, Central radioligand binding (ligand: [3H] Idazoxan); format: cell membranes, Rattus norvegicus, Wistar, Cerebral cortex, Membrane; details: Not Active = under 50% inhibition at 10 µM; read-out: Ki
Give bare numbers, in µM.

# count of solved cases: 3
*Q* # Ki lookup, item COc1cc2nc(N3CCN(C(=O)c4ccco4)CC3)nc(N)c2cc1OC [PRAZOSIN]
*A* 0.633

*Q* # Ki lookup, item N=C(N)NC(=O)Cc1c(Cl)cccc1Cl [GUANFACINE]
*A* 0.03

*Q* # Ki lookup, item CO[C@@H]1[C@@H](OC)[C@H](C)[C@@](O)(CC(=O)O)O[C@H]1[C@H](C)[C@H]1O[C@@]2(CC[C@@](C)([C@H]3CC[C@@](C)([C@@H]4O[C@@H]([C@H]5O[C@](C)(O)[C@H](C)C[C@@H]5C)C[C@@H]4O[C@@H]4C[C@H](OC)[C@@H](OC)[C@H](C)O4)O3)O2)C[C@H](O)[C@H]1C [MADURAMICIN ACID]
*A* 0.405

Hi there! I need Ki for each item below, if you can.
1. COc1ccc2cc3[n+](cc2c1OC)CCc1cc2c(cc1-3)OCO2.[Cl-] [BERBERINE CHLORIDE]
2. CN(C)CC[C@@H](c1ccc(Cl)cc1)c1ccccn1 [DEXCHLORPHENIRAMINE]
3. Brc1c(NC2=NCCN2)ccc2nccnc12 [BRIMONIDINE]

*A*
1. 0.852
2. 10.1
3. 0.049

*Q* # Ki lookup, item C[C@@H](CO)NC(=O)[C@@H]1C=C2c3cccc4[nH]cc(c34)C[C@H]2N(C)C1 [ERGONOVINE]
*A* 1.23

* * *

Would you mind telling me the reported IC50 of each entry?
Molecular target: UniProt P43140
Sequence (P43140 whole entry): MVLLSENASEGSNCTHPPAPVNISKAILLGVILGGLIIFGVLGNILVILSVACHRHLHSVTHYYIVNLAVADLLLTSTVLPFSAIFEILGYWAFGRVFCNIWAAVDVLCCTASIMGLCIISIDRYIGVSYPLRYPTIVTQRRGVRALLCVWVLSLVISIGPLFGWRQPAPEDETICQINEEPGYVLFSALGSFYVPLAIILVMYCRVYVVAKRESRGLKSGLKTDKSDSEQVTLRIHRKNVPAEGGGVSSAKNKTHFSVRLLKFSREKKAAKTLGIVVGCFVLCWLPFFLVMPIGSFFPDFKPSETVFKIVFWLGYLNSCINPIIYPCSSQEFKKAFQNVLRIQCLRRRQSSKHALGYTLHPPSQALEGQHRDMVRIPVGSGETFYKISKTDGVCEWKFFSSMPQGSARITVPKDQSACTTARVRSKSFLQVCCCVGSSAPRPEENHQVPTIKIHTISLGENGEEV
Assay: DRUGMATRIX: Alpha-1A adrenergic receptor radioligand binding (ligand: prazosin)
Format: cell membranes, Wistar, Submaxillary gland, Membrane
Conditions: Not Active = under 50% inhibition at 10 µM; read-out: IC50

# count of solved cases: 2
*Q* # IC50 lookup, item Clc1ccc(COC(Cn2ccnc2)c2ccc(Cl)cc2Cl)cc1 (stereo not drawn)
*A* 21.2 µM

*Q* # IC50 lookup, item CCCNCC(O)COc1ccccc1C(=O)CCc1ccccc1 (stereo not drawn)
*A* 6.15 µM

Now examine the next entry.
*Q* # IC50 lookup, item CO[C@@H]1[C@@H](OC)[C@H](C)[C@@](O)(CC(=O)O)O[C@H]1[C@H](C)[C@H]1O[C@@]2(CC[C@@](C)([C@H]3CC[C@@](C)([C@@H]4O[C@@H]([C@H]5O[C@](C)(O)[C@H](C)C[C@@H]5C)C[C@@H]4O[C@@H]4C[C@H](OC)[C@@H](OC)[C@H](C)O4)O3)O2)C[C@H](O)[C@H]1C
*A* 3.34 µM

* * *

Target: Adenosine receptor A1 (Homo sapiens); also: in other assays of this panel Not Active means under 50% inhibition at 10 µM;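 also: radioligand binding assay at the adenosine A1 receptor, with DPCPX serving as the labelled ligand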
Sequence (P30542 whole entry): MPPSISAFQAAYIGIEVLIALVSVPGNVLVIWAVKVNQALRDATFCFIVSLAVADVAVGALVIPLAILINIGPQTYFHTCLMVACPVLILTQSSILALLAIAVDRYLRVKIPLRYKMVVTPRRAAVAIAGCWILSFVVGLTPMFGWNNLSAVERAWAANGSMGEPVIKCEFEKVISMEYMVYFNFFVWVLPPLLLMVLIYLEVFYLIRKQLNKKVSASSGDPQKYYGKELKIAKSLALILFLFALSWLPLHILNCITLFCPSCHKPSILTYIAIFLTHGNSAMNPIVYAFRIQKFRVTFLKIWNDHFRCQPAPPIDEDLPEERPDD
Format: cell membranes, CHO, Membrane
Details: cho
measured.parameter: IC50

# count of solved cases: 10
*Q* # IC50 lookup, item CC(C(=O)O)c1ccc2oc(-c3ccc(Cl)cc3)nc2c1 (centres undefined) [BENOXAPROFEN]
*A* Not Active

*Q* # IC50 lookup, item C[C@@H](CO)NC(=O)[C@@H]1C=C2c3cccc4[nH]cc(c34)C[C@H]2N(C)C1 [ERGONOVINE]
*A* Not Active

*Q* # IC50 lookup, item COC(=O)Nc1nc2ccc([S+]([O-])c3ccccc3)cc2[nH]1 (centres undefined) [OXFENDAZOLE]
*A* Not Active

*Q* # IC50 lookup, item CNC1(c2ccccc2Cl)CCCCC1=O (centres undefined) [KETAMINE]
*A* Not Active

*Q* # IC50 lookup, item Cc1cc2c(OCC(CNC(C)(C)C)OC(=O)c3ccccc3)cccc2[nH]1 (centres undefined) [BOPINDOLOL]
*A* Not Active

*Q* # IC50 lookup, item C[n+]1ccccc1/C=N/O.[Cl-] [PRALIDOXIME CHLORIDE]
*A* Not Active

*Q* # IC50 lookup, item CC(C)Oc1ccc2c(=O)c(-c3ccccc3)coc2c1 [IPRIFLAVONE]
*A* Not Active

*Q* # IC50 lookup, item COc1cc([C@@H]2c3cc4c(cc3[C@@H](O[C@@H]3O[C@@H]5CO[C@@H](C)O[C@H]5[C@H](O)[C@H]3O)[C@H]3COC(=O)[C@H]23)OCO4)cc(OC)c1O [ETOPOSIDE]
*A* Not Active

*Q* # IC50 lookup, item COc1ccc(C2C(=O)c3ccccc3C2=O)cc1 [ANISINDIONE]
*A* Not Active

*Q* # IC50 lookup, item O=C(Oc1ccccc1C(=O)O)c1ccccc1O [SALSALATE]
*A* Not Active

Hi there! I need IC50 for each item below, if you can.
1. COc1ccc2cc3[n+](cc2c1OC)CCc1cc2c(cc1-3)OCO2.[Cl-] [BERBERINE CHLORIDE]
2. CS(=O)(=O)c1ccc([C@@H](O)[C@@H](CO)NC(=O)C(Cl)Cl)cc1 [THIAMPHENICOL]
3. Cn1c(=O)c2c(ncn2CC(O)CO)n(C)c1=O (centres undefined) [DYPHYLLINE]
4. O=C(O)CCNC(=O)c1ccccc1 [BETAMIPRON]
5. CC(C)NCC(O)c1ccc(NS(C)(=O)=O)cc1 (centres undefined) [SOTALOL]
6. NCCCC(O)(P(=O)(O)O)P(=O)(O)O [ALENDRONIC ACID]

*A*
1. Not Active
2. Not Active
3. Not Active
4. Not Active
5. Not Active
6. Not Active

Hi there! I need IC50 for each item below, if you can.
1. O=C(Nc1ccc(Br)cc1)c1cc(Br)cc(Br)c1O [TRIBROMSALAN]
2. NC(=O)N1C(=O)/C(=C(\O)c2cccs2)c2cc(Cl)ccc21 [TENIDAP]
3. Clc1ccccc1CN1CCc2sccc2C1 [TICLOPIDINE]

*A*
1. Not Active
2. Not Active
3. Not Active
